System: MM.1S cells
Assay: Proliferation inhibition (IC50) in MM.1S cells, cell viability assay
Details: Homo sapiens, MM1.S, 72 h, read-out: IC50 (nM), proliferation inhibitory activity of MM.1S cells (half inhibitory concentration)
IC50 overview
measured_parameter: IC50 (nM)

> print(dat)
                                   molecule  measured.parameter  reported.result
1  O=C1CCC(N2Cc3c(SCCCCCNC45CC6CC(CC(C6)C4)C5)cccc3C2=O)C(=O)N1 (centres unmarked) [SIAIS1221117]                IC50             0.06
2  CN(CCCCCCCSc1cccc2c1CN(C1CCC(=O)NC1=O)C2=O)c1ccccc1 (centres unmarked) [SIAIS1220189]                IC50            0.553
3  CCN(CC)CCCCCSc1cccc2c1CN(C1CCC(=O)NC1=O)C2=O (centres unmarked) [SIAIS1216139]                IC50             4.06
4  O=C1CCC(N2Cc3c(SCCCCCCCCN4CCOCC4)cccc3C2=O)C(=O)N1 (centres unmarked) [SIAIS1216143]                IC50             0.17
5  CNCCCCCCCCSc1cccc2c1CN(C1CCC(=O)NC1=O)C2=O (centres unmarked) [SIAIS1216151]                IC50             0.33
6  CN(CCCCNC(=O)CSc1cccc2c1CN(C1CCC(=O)NC1=O)C2=O)C12CC3CC(CC(C3)C1)C2 (centres unmarked) [SIAIS287105]                IC50             5.01
7  O=C1CCC(N2Cc3c(SCc4ccc(CNCC5CCCCO5)o4)cccc3C2=O)C(=O)N1 (centres unmarked) [SIAIS313149]                IC50              1.3
8  O=C1CCC(N2Cc3c(SCCc4ccc(CNC56CC7CC(CC(C7)C5)C6)cc4)cccc3C2=O)C(=O)N1 (centres unmarked) [SIAIS1224149]                IC50             0.44

----------
System: MM.1S cells
Assay: Proliferation inhibition (IC50) in MM.1S cells, cell viability assay
Conditions: Homo sapiens, MM1.S, 72 h, read-out: IC50 (nM), proliferation inhibitory activity of MM.1S cells (half inhibitory concentration)
IC50 overview
measured_parameter: IC50 (nM)

> print(dat)
                                   molecule  reported.result
1  CCN(CC)CCCCCCSc1cccc2c1CN(C1CCC(=O)NC1=O)C2=O (stereo not shown)             1.13
2  O=C1CCC(N2Cc3c(SCCCCCCNCC4CCCCC4)cccc3C2=O)C(=O)N1 (stereo not shown)            0.083
3  CCN(CC)CCc1ccc(CSc2cccc3c2CN(C2CCC(=O)NC2=O)C3=O)cc1 (stereo not shown)            0.163
4  O=C1CCC(N2Cc3c(SCCCCCCCNC45CC6CC(CC4C6)C5)cccc3C2=O)C(=O)N1 (stereo not shown)            0.028

----------
IC50 overview
Tested on: MM.1S cells
Assay: Proliferation inhibition (IC50) in MM.1S cells, cell viability assay
Conditions: Homo sapiens, MM1.S, 72 h, read-out: IC50 (nM), proliferation inhibitory activity of MM.1S cells (half inhibitory concentration)
measured_parameter: IC50

> print(dat)
                                   molecule  reported.result
1  C[C@H](NCc1ccc(CSc2cccc3c2CN(C2CCC(=O)NC2=O)C3=O)o1)C1CC1 (some centres unmarked)          0.97 nM
2  O=C1CCC(N2Cc3c(SCCCCCCCN4CCCCCC4)cccc3C2=O)C(=O)N1 (centres unmarked)          0.03 nM
3  O=C1CCC(N2C(=O)c3cccc(SCCc4ccc(CNC5CCCCC5)cc4)c3C2=O)C(=O)N1 (centres unmarked)          34.3 nM
4  O=C1CCC(N2Cc3c(SCc4nc(CN5CCCCCC5)cs4)cccc3C2=O)C(=O)N1 (centres unmarked)          1.34 nM
5  Cc1ccc(NC(=O)NCCCCCCCCSc2cccc3c2CN(C2CCC(=O)NC2=O)C3=O)cc1Cl (centres unmarked)         0.468 nM
6  CC12CC3CC(C)(C1)CC(NCCCCCCCSc1cccc4c1CN(C1CCC(=O)NC1=O)C4=O)(C3)C2 (centres unmarked)          0.02 nM
7  O=C1CCC(N2Cc3c(SCCCCCCCCN4CCCNCC4)cccc3C2=O)C(=O)N1 (centres unmarked)          2.77 nM
8  CSc1cccc2c1CN(C1CCC(=O)NC1=O)C2=O (centres unmarked)          3.37 nM

----------
System: MM.1S cells
Assay: Proliferation inhibition (IC50) in MM.1S cells, cell viability assay
Settings: Homo sapiens, MM1.S, 72 h, read-out: IC50 (nM), proliferation inhibitory activity of MM.1S cells (half inhibitory concentration)
Lab note - cut at 0.7 nM for IC50: class 1 if strictly below, class 0 if not.

> print(dat)
                                   compound  assigned.label
1  O=C1CCC(N2Cc3c(SCCCCCCC(=O)NC45CC6CC(CC(C6)C4)C5)cccc3C2=O)C(=O)N1 (stereo not shown)         class 1
2  O=C1CCC(N2Cc3c(SCc4ccc(CNC5CCCC5)o4)cccc3C2=O)C(=O)N1 (stereo not shown)         class 0
3  O=C1CCC(N2Cc3c(SCc4ccc(CCN5CCCCCCC5)cc4)cccc3C2=O)C(=O)N1 (stereo not shown)         class 1
4  CC1(C)[C@@H]2CC[C@@]1(C)[C@@H](NCCCCCCCSc1cccc3c1CN(C1CCC(=O)NC1=O)C3=O)C2 (stereo partly shown)         class 1
5  O=C1CCC(N2Cc3c(SCc4ccc(CNC56CC7CC(CC(O)(C7)C5)C6)cc4)cccc3C2=O)C(=O)N1 (stereo not shown)         class 0
6  O=C1CCC(N2Cc3c(SCc4ccc(CNC(C5CC5)C5CC5)cc4)cccc3C2=O)C(=O)N1 (stereo not shown)         class 1

----------
IC50 overview
Tested on: MM.1S cells
Assay: Proliferation inhibition (IC50) in MM.1S cells, cell viability assay
Settings: Homo sapiens, MM1.S, 72 h, read-out: IC50 (nM), proliferation inhibitory activity of MM.1S cells (half inhibitory concentration)
measured_parameter: IC50 (nM)

> print(dat)
                                   compound  measured.parameter  reported.result
1  CCN(CC)CCNCCCCCCCCSc1cccc2c1CN(C1CCC(=O)NC1=O)C2=O (centres unmarked) [SIAIS1220037]                IC50             0.83
2  O=C1CCC(N2Cc3c(SCCCCNC45CC6CC(CC(C6)C4)C5)cccc3C2=O)C(=O)N1 (centres unmarked) [SIAIS1222179]                IC50            0.074
3  CN1CCN(CCCCCCCCSc2cccc3c2CN(C2CCC(=O)NC2=O)C3=O)CC1 (centres unmarked) [SIAIS1220011]                IC50             0.57
4  O=C1CCC(N2Cc3c(SCCCCCCNC4C5CC6CC(C5)CC4C6)cccc3C2=O)C(=O)N1 (centres unmarked) [SIAIS1220179]                IC50            0.036
5  CN1C(=O)CCC(N2Cc3c(SCc4ccc(CN5CCCCC5)cc4)cccc3C2=O)C1=O (centres unmarked) [SIAIS1224101]                IC50              287
6  O=C1CCC(N2Cc3c(SCCCCCCCN4CCSCC4)cccc3C2=O)C(=O)N1 (centres unmarked) [SIAIS1224125]                IC50            0.046
7  O=C1CCC(N2Cc3c(SCc4nc(CNC5CCCCC5)cs4)cccc3C2=O)C(=O)N1 (centres unmarked) [SIAIS355003]                IC50             0.75
8  CC(C)N(Cc1ccc(CSc2cccc3c2CN(C2CCC(=O)NC2=O)C3=O)cc1)C(C)C (centres unmarked) [SIAIS1227057]                IC50            0.252

----------
Test system: MM.1S cells
Experiment: Proliferation inhibition (IC50) in MM.1S cells, cell viability assay
Conditions: Homo sapiens, MM1.S, 72 h, read-out: IC50 against MM.1S cells (proliferation inhibition)
pIC50: −log10 of the molar value.
measured_parameter: pIC50

> print(dat)
                                   compound  system.name  reported.result
1  O=C1CCC(N2Cc3c(SCCCCCCCCN4CCCCC4)cccc3C2=O)C(=O)N1 (stereo not shown)  MM.1S cells            ~9.92

These entries and their values trace back to patent US12582641B2.
